Quick list: ratio OD on target/OD bdf per entry.
Molecular target: T1, recombinant murine MOG protein (murine, UniProt Q61885 29-156, limits assumed)
T1 construct: Bought recombinant protein; also called MMOG
T1 sequence (looked up): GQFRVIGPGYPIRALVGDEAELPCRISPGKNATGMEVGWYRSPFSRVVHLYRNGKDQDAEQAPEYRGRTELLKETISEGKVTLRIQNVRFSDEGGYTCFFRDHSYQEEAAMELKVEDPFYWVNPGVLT
Experiment: phage-scFv ELISA on coated recombinant murine MOG (0.5 µg/well), anti-M13 HRP, OD450 over BSA background

binder | ratio OD on target/OD bdf (ratio)
anti-MOG MO3J-23 antibody (scFv, V domains shown) VH: DQVQLVQSGAEVKPGASVKVSCKASGYTFTSYGISWVRQAPGQGLEWMGWISAYNGNTNYAQKLQGRVTMTTDTSTSTAYMELRSLRSDDTAVYYCARDPVGSLRPYYMDVWGEGTTVTVSS VL: DIVMTQSPSTLSASVGDRVTITCRASQSISTWLAWYQQKPGKAPKLLIYAASSLQSGVPSRFSGSGSGTDFTLTISSLQPEDFATYYCQQSYSTPRTFGQGTKVEIK | 7.46
anti-MOG MO4H-46 antibody (scFv, V domains shown) VH: QVQLVQSGAEVKKPGASVKVSCKASGYTFTSYAMHWVRQAPGQRLEWMGWINAGNGNAKYSQKFQGRVTLTRDTSASTAYMKLSSLRSEDTAVYYCARGAPTYRYFDLWGRGTLVTVSS VL: QSVLTQPPSVSAAPGQKVTISCSGSSSNIGNNYVAWYQQLPGTAPKLLIYDNNKRPSGIPDRFSGSKSGTSATLGITGLQTGDEADYYCGTSDSSLSAVVFGGGTKLTVL | 4.68
anti-MOG MO3I-33 antibody (scFv, V domains shown) VH: DQVQLVQSGAEVKPGATVKISCKVSGYTFTDYYMHWVQQAPGKGLEWMGLVDPEDGETIYAEKFQGRVTITADTSTDTAYMELSSLRSEDTAVYYCATSYHGTSGFDYWGQGTLVTVSS VL: QSVVTQPPSVSGAPGQRVTIACTGSNSDIGAGHDVHWYQQFPRTAPKLIIFGNTNRPSGVPDRFSGSKSGTSASLVITGLQADDEADYHCQSYDNNLSGPIFGGGTKLTVL | 2.52
anti-MOG MO3I-57 antibody (scFv, V domains shown) VH: QVQLVQSGAEVKKPGASVKVSCKASGYTFSSYGISWVRQAPGQGLEWMGWISANTGNTDYAERLQGRVTMTTDTSTTTAYMELRSLRSDDTAVYYCARGAPNGYAVDYWGQGTLVTVSS VL: QSVLTQPPSASGAPGQRVSISCSGSSSNIGTNHVYWYQQFTGMAPKLIIDTNNQRPPGVPARFSGSKSGTSASLAISGLRSEDESDYYCLTWDDGLYDWVFGGGTKLTVL | 2.77
